testedOn: Estrogen receptor (Homo sapiens, UniProt Q92731+P03372)
protocolConditions: mcf7
Overview of reported log10 of IC50 across a group of compounds:
Values are log10 of IC50 in µM.

[[record]]
compoundstring = "CCc1ccc(-c2sc3cc(O)ccc3c2C(=O)c2ccc(OCCN3CCCCC3)cc2)cc1"
testedon = "Estrogen receptor (Homo sapiens, UniProt Q92731+P03372)"
endpointresult = -2.30

[[record]]
compoundstring = "O=C(c1ccc(OCCN2CCCCC2)cc1)c1c(-c2ccc(O)cc2)sc2cc(O)c(O)cc12"
testedon = "Estrogen receptor (Homo sapiens, UniProt Q92731+P03372)"
endpointresult = -0.40

[[record]]
compoundstring = "O=C(c1ccc(OCCN2CCCCC2)cc1)c1c(-c2ccc(O)cc2)sc2cc(O)c3ccccc3c12"
testedon = "Estrogen receptor (Homo sapiens, UniProt Q92731+P03372)"
endpointresult = -0.30

[[record]]
compoundstring = "O=C(c1ccc(OCCN2CCCCC2)cc1)c1c(-c2cccs2)sc2cc(O)ccc12"
testedon = "Estrogen receptor (Homo sapiens, UniProt Q92731+P03372)"
endpointresult = -1.70


Here is the next item to consider.
So, COc1ccc(-c2sc3cc(OC)ccc3c2C(=O)c2ccc(OCCN3CCCCC3)cc2)cc1.Cl ? Its log10 of IC50 was -0.52

* * *

testedOn: Estrogen receptor (Homo sapiens, UniProt Q92731+P03372)
protocolConditions: mcf7
Quick reference: IC50 of the listed items.
Answer with a number only, understood to be in nM.

For orientation, consider the following solved cases.
[[record]]
compoundstring = "Cl.O=C(c1ccc(OCCN2CCCCC2)cc1)c1c(-c2ccccc2)sc2ccccc12"
unitabbreviation = "nM"
endpointresult = 300

[[record]]
compoundstring = "O=C(c1ccc(OCCN2CCCCC2)cc1)c1c(-c2ccc(O)c(F)c2)sc2cc(O)ccc12"
unitabbreviation = "nM"
endpointresult = 0.3

[[record]]
compoundstring = "COc1ccc2c(C(=O)c3ccc(OCCN4CCCCC4)cc3)c(-c3ccc4c(c3)OCO4)sc2c1"
unitabbreviation = "nM"
endpointresult = 500

[[record]]
compoundstring = "CC(C)c1ccc(-c2sc3cc(O)ccc3c2C(=O)c2ccc(OCCN3CCCCC3)cc2)cc1"
unitabbreviation = "nM"
endpointresult = 30

[[record]]
compoundstring = "O=C(c1ccc(OCCN2CCCCC2)cc1)c1c(-c2ccc(O)cc2)sc2cc(O)c(F)cc12"
unitabbreviation = "nM"
endpointresult = 3

[[record]]
compoundstring = "Cc1ccccc1-c1sc2cc(O)ccc2c1C(=O)c1ccc(OCCN2CCCCC2)cc1"
unitabbreviation = "nM"
endpointresult = 0.7

[[record]]
compoundstring = "O=C(c1ccc(OCCN2CCCCC2)cc1)c1c(-c2cccc3ccccc23)sc2cc(O)ccc12"
unitabbreviation = "nM"
endpointresult = 0.8

[[record]]
compoundstring = "O=C(c1ccc(OCCN2CCCCC2)cc1)c1c(-c2ccc(O)cc2)sc2cc(O)cc(O)c12"
unitabbreviation = "nM"
endpointresult = 350


Continue with the next compound.
The compound identified as Cl.O=C(c1ccc(OCCN2CCCCC2)cc1)c1c(-c2ccc(O)cc2)sc2cc(Cl)ccc12 registered its IC50 at 1000

* * *

Tested on: Rattus norvegicus
assay: Minimum effective dose at which significant increase in uterine weight/body weight in rat was determined (in vivo)
Assay type: functional
protocolConditions: read-out: MED
measuredMetric: minimal effective dose (mg/kg)
State just the number; it will be interpreted in mg/kg.

[[record]]
compoundstring = "O=C(c1ccc(OCCN2CCCCC2)cc1)c1c(-c2ccc(O)cc2)sc2c(O)cccc12"
measuredmetric = "minimal effective dose"
unitabbreviation = "mg/kg"
endpointresult = 10

[[record]]
compoundstring = "C#Cc1ccc2c(C(=O)c3ccc(OCCN4CCCCC4)cc3)c(-c3ccc(O)cc3)sc2c1"
measuredmetric = "minimal effective dose"
unitabbreviation = "mg/kg"
endpointresult = 1

[[record]]
compoundstring = "Cl.O=C(c1ccc(OCCN2CCCCC2)cc1)c1c(-c2ccccc2)sc2cc(O)ccc12"
measuredmetric = "minimal effective dose"
unitabbreviation = "mg/kg"
endpointresult = 0.1

[[record]]
compoundstring = "O=C(c1ccc(OCCN2CCCCC2)cc1)c1c(C2CCCCC2)sc2cc(O)ccc12"
measuredmetric = "minimal effective dose"
unitabbreviation = "mg/kg"
endpointresult = 1

[[record]]
compoundstring = "Cl.O=C(c1ccc(OCCN2CCCCC2)cc1)c1c(-c2ccc(O)cc2)sc2ccccc12"
measuredmetric = "minimal effective dose"
unitabbreviation = "mg/kg"
endpointresult = 0.1


Per the records, this compound ( O=C(c1ccc(OCCN2CCCCC2)cc1)c1c(-c2ccc(O)cc2)sc2cc(O)ccc12 ) has minimal effective dose equal to 0.1

For record CC/C(=C(\c1ccccc1)c1ccc(OCCN(C)C)cc1)c1ccccc1 the listed minimal effective dose is 0.1

Value of minimal effective dose reported for the compound Cl.O=C(c1ccc(OCCN2CCCCC2)cc1)c1c(-c2ccc(O)cc2)sc2cc(Cl)ccc12 is 10

# minimal effective dose (compound: COc1ccc2c(C(=O)c3ccc(OCCN4CCCCC4)cc3)c(-c3ccc(O)cc3)sc2c1 ) is 1

minimal effective dose measured on O=C(c1ccc(OCCN2CCCCC2)cc1)c1c(-c2ccsc2)sc2cc(O)ccc12 = 10

Measured minimal effective dose of CCSCc1ccc(-c2sc3cc(O)ccc3c2C(=O)c2ccc(OCCN3CCCCC3)cc2)cc1 : 1

Kindly note the recorded minimal effective dose for O=C(c1ccc(OCCN2CCCCC2)cc1)c1c(Cc2ccc(O)cc2)sc2cc(O)ccc12 , which is 5

minimal effective dose for Cc1cc(-c2sc3cc(O)ccc3c2C(=O)c2ccc(OCCN3CCCCC3)cc2)cc(C)c1O is 1

Reported minimal effective dose ( O=C(c1ccc(OCCN2CCCCC2)cc1)c1c(-c2ccc(O)c3ccccc23)sc2cc(O)ccc12 ) = 0.1
